# Run Description: Chromatographic hydrophobicity index of compound at pH 10.5 by reversed-phase HPLC analysis
# Assay type: ADME
Metric Name: CHI
Please reply with the value in numeric form only.

Tell me the measured CHI of CN(CCc1ccsc1)Cc1ccc(COc2ccc3c(CO)cc(=O)oc3c2)cc1 , please.
95.2

# CHI lookup, item CN(Cc1ccc(COc2ccc3c(CO)cc(=O)oc3c2)cc1)Cc1nccs1
76.1

# get_value(readout='CHI', item= CN(CCc1cccs1)Cc1ccc(COc2ccc3c(CO)cc(=O)oc3c2)cc1 )
97.8

Any idea what its CHI is? The compound is CN(CCc1cccnc1)Cc1ccc(COc2ccc3c(CO)cc(=O)oc3c2)cc1
69.3

Query: CHI; subject: CN(Cc1ccc(COc2ccc3c(CO)cc(=O)oc3c2)cc1)Cc1cscn1
69.9

# get_value(readout='CHI', item= CN(Cc1ccccc1)Cc1ccc(COc2ccc3c(CO)cc(=O)oc3c2)cc1 )
102.1

Query (compound): CN(Cc1ccc(COc2ccc3c(CO)cc(=O)oc3c2)cc1)Cc1cccnc1 ; field requested: CHI
70.9

// query CHI value for entry CN(Cc1ccc(COc2ccc3c(CO)cc(=O)oc3c2)cc1)Cc1ncc[nH]1
50.7

Quick one: CHI for CN(Cc1ccc(COc2ccc3c(CO)cc(=O)oc3c2)cc1)Cc1cncnc1 ?
61.4

Report CHI for CN(Cc1ccc(COc2ccc3c(CO)cc(=O)oc3c2)cc1)Cc1ccco1 please.
85.1

Endpoint output: CHI of CN(Cc1ccc(COc2ccc3c(CO)cc(=O)oc3c2)cc1)Cc1ccsc1 . Value?
95

// lookup CHI for CN(Cc1ccc(COc2ccc3c(CO)cc(=O)oc3c2)cc1)Cc1cccs1
98

Requested read-out: CHI. Entry: CN(Cc1ccncc1)Cc1ccc(COc2ccc3c(CO)cc(=O)oc3c2)cc1
72

----------
# Run Description: Chromatographic hydrophobicity index of compound at pH 2.0 by reversed-phase HPLC analysis
# Type: ADME
Note to self: values exactly at 40 are met. So CHI at or above 40 is met, below is not met.

Given the entry CN(Cc1ccc(COc2ccc3c(CO)cc(=O)oc3c2)cc1)Cc1ncc[nH]1 , answer whether its CHI meets or surpasses 40.
not met

Test whether the compound CN(Cc1ccccc1)Cc1ccc(COc2ccc3c(CO)cc(=O)oc3c2)cc1 records CHI of 40 or higher.
met

Test whether the compound CN(CCc1cccnc1)Cc1ccc(COc2ccc3c(CO)cc(=O)oc3c2)cc1 records CHI of 40 or higher.
not met

API: above_or_equal(metric=CHI, cutoff=40) for item CN(Cc1ccncc1)Cc1ccc(COc2ccc3c(CO)cc(=O)oc3c2)cc1
not met

Could you verify whether the entry CN(Cc1ccc(COc2ccc3c(CO)cc(=O)oc3c2)cc1)Cc1nccs1 shows CHI of no less than 40?
met

Could you verify whether the entry CN(Cc1ccc(COc2ccc3c(CO)cc(=O)oc3c2)cc1)Cc1cncnc1 shows CHI of no less than 40?
not met

Identify whether the reported CHI of the following compound is 40 or greater: CN(Cc1ccc(COc2ccc3c(CO)cc(=O)oc3c2)cc1)Cc1cscn1
met

I'd appreciate it if you could say whether CN(Cc1ccc(COc2ccc3c(CO)cc(=O)oc3c2)cc1)Cc1cccs1 has CHI at least equal to 40.
met

The measured values listed here are drawn from ChEMBL document CHEMBL5550168.
